The origin of these recorded values is patent US20220177587A1.

Entries annotated with measured Relative Luciferase Units (RLU), CD80 Cone 5.0 nM
molecular target: CD28 (Homo sapiens, UniProt P10747); assay: Jurkat/IL2 + CHO/OKT3 +/- PD-L1 reporter assay: PD-L1-dependent CD28 costimulation; type: cell-based; parameters: host or cells: Jurkat cells expressing an IL-2-luciferase reporter; settings: Table E13; Jurkat/IL2 + CHO/OKT3/PD-L1; 5.0 nM
Measurement name: Relative Luciferase Units (RLU), CD80 Cone 5.0 nM

Molecule: R29C/E35D/M47L/V68M/A71G/L85M (protein, UniProt P33681 35-288, looked up, variant R29C E35D M47L V68M A71G L85M, Fc fusion) T-lymphocyte activation …: VIHVTKEVKEVATLSCGHNVSVEELAQTCIYWQKDKKMVLTMMSGDLNIWPEYKNRTIFDITNNLSIMILGLRPSDEGTYECVVMKYEKDAFKREHLAEVTLSVKADFPTPSISDFEIPTSNIRRIICSTSGGFPEPHLSWLENGEELNAINTTVSQDPETELYAVSSKLDFNMTTNHSFMCLIKYGHLRVNQTFNWNTTKQEHFPDNLLPSWAITLISVNGIFVICCLTYCFAPRCRERRRNERLRRESVRPV
Readout value: 155 RLU
//
Molecule: E35D/D46E/M47L/V68M/A71G/Y87C/K93R (protein, UniProt P33681 35-288, looked up, variant E35D D46E M47L V68M A71G Y87C K93R) T-lymphocyte activation …: VIHVTKEVKEVATLSCGHNVSVEELAQTRIYWQKDKKMVLTMMSGELNIWPEYKNRTIFDITNNLSIMILGLRPSDEGTYECVVLKCEKDAFRREHLAEVTLSVKADFPTPSISDFEIPTSNIRRIICSTSGGFPEPHLSWLENGEELNAINTTVSQDPETELYAVSSKLDFNMTTNHSFMCLIKYGHLRVNQTFNWNTTKQEHFPDNLLPSWAITLISVNGIFVICCLTYCFAPRCRERRRNERLRRESVRPV
Readout value: 1198 RLU
